Test system: MIA PaCa-2
runDescription: Antiproliferative activity against human MIA PaCa-2 cells assessed as inhibition of cell growth incubated for 48 hrs by propidium iodide staining based fluorometer assay
Type: functional
conditionSummary: MIA PaCa-2, 48 h
measure: IC50 (µM)
The answer is to be given in µM; state only the numeric part.

Below: 10 molecules and their reported IC50.
>>> result("COc1ccc(/C=C2\\CN(Cc3ccccc3)C/C(=C\\c3ccc(OC)c(OC)c3Cl)C2=O)c(Cl)c1OC")
15.5
>>> result("COc1cc(/C=C2\\CCc3ccc([N+](=O)[O-])cc3\\C2=N\\O)c(Br)c(OC)c1OC")
0.02
>>> result("CCN(CC)CCO/N=C1\\C(=C\\c2cc(OC)c(OC)c(OC)c2Br)CCc2c(OC)ccc(OC)c21")
2.1
>>> result("CCN(CC)CCO/N=C1\\C(=C\\c2ccc(OC)c(OC)c2Cl)CCc2ccc([N+](=O)[O-])cc21")
6.6
>>> result("COc1cc2c(cc1OC)C(=O)/C(=C/c1ccc(OC)c(OC)c1Cl)CC2")
5
>>> result("COc1ccc2c(c1)CCC(=C\\c1cc(OC)c(OC)c(OC)c1Br)/C2=N\\O")
1.2
>>> result("COc1cc(/C=C2\\CN(Cc3ccccc3)C/C(=C\\c3cc(OC)c(OC)c(OC)c3Br)C2=O)c(Br)c(OC)c1OC")
11.9
>>> result("COc1cccc(/C=C2\\CCC/C(=C\\c3cccc(OC)c3Cl)C2=O)c1Cl")
7.2
>>> result("COc1ccc(OC)c2c1CC/C(=C\\c1cc(OC)c(OC)c(OC)c1Br)C2=O")
2.2
>>> result("COc1cc(/C=C2\\CCC/C(=C\\c3cc(OC)c(OC)c(OC)c3Br)C2=NO)c(Br)c(OC)c1OC")
2.6

Query: So what's the measured IC50 for this one? COc1cccc(/C=C2\CCc3c(OC)cccc3C2=O)c1Cl
Result: 8.7

Query: So what's the measured IC50 for this one? COc1cccc2c1CC/C(=C\c1ccc(OC)c(OC)c1Cl)C2=O
Result: 6.7

Query: So what's the measured IC50 for this one? COc1cc(/C=C2\CC(C)c3ccccc3C2=O)c(Br)c(OC)c1OC (stereo not given)
Result: 2.3

Query: So what's the measured IC50 for this one? COc1ccc(/C=C2\CCC/C(=C\c3ccc(OC)c(OC)c3Cl)C2=O)c(Cl)c1OC
Result: 4.2

Query: So what's the measured IC50 for this one? COc1cccc(/C=C2\CCc3ccccc3C2=O)c1Cl
Result: 27.9

Query: So what's the measured IC50 for this one? COc1ccc(OC)c2c1CCC(=C\c1cc(OC)c(OC)c(OC)c1Br)/C2=N\O
Result: 0.6

Query: So what's the measured IC50 for this one? COc1ccc(/C=C2\CCc3ccc([N+](=O)[O-])cc3\C2=N\O)c(Cl)c1OC
Result: 0.09

Query: So what's the measured IC50 for this one? COc1cc2c(cc1OC)C(=O)/C(=C/c1cccc(OC)c1Cl)CC2
Result: 9.9

Query: So what's the measured IC50 for this one? COc1cccc(/C=C2\CCc3c(O)cccc3C2=O)c1Cl
Result: 4.9

Query: So what's the measured IC50 for this one? CCN(CC)CCON=C1/C(=C/c2cc(OC)c(OC)c(OC)c2Br)CC(C)C/C1=C\c1cc(OC)c(OC)c(OC)c1Br (stereo not given)
Result: 4.9
